# system under test: UniProtKB E3UJZ5
# assay name: Agonist activity at ecdysone receptor in Spodoptera littoralis Sl2 cells after 24 hr by luciferase reporter gene assay
# Assay type: cell-based
# condition info: read-out: pEC50 (converted)
measured endpoint: EC50 (nM)

[[record]]
compound = "CCCCCc1ccc(C(=O)NN(C(=O)c2cc(C)cc(C)c2Cl)C(C)(C)C)cc1"
system_under_test = "UniProtKB E3UJZ5"
measured_endpoint = "EC50"
units = "nM"
readout_number = 3550

[[record]]
compound = "CC(C)(C)N(NC(=O)c1cccc(Cl)c1)C(=O)c1ccccc1Cl"
system_under_test = "UniProtKB E3UJZ5"
measured_endpoint = "EC50"
units = "nM"
readout_number = 1700

[[record]]
compound = "CCc1ccc(C(=O)NC2(C(=O)c3cc(C)cc(C)c3)CCCCC2)cc1"
system_under_test = "UniProtKB E3UJZ5"
measured_endpoint = "EC50"
units = "nM"
readout_number = 120

[[record]]
compound = "Cc1cc(C)cc(C(=O)N(NC(=O)c2cccc(C)c2C)C(C)(C)C)c1"
system_under_test = "UniProtKB E3UJZ5"
measured_endpoint = "EC50"
units = "nM"
readout_number = 16.2

[[record]]
compound = "COc1cccc(C(=O)NN(C(=O)c2cc(C)cc(C)c2)C(C)(C)C)c1C [METHOXYFENOZIDE]"
system_under_test = "UniProtKB E3UJZ5"
measured_endpoint = "EC50"
units = "nM"
readout_number = 6.03

[[record]]
compound = "Cc1ccccc1C(=O)N(NC(=O)c1cccc(F)c1)C(C)(C)C"
system_under_test = "UniProtKB E3UJZ5"
measured_endpoint = "EC50"
units = "nM"
readout_number = 457

[[record]]
compound = "CC(C)(C)N(NC(=O)c1ccccc1)C(=O)c1ccccc1C(F)(F)F"
system_under_test = "UniProtKB E3UJZ5"
measured_endpoint = "EC50"
units = "nM"
readout_number = 794

[[record]]
compound = "CC(C)(C)N(NC(=O)c1ccccc1F)C(=O)c1ccccc1Cl"
system_under_test = "UniProtKB E3UJZ5"
measured_endpoint = "EC50"
units = "nM"
readout_number = 288

[[record]]
compound = "Cc1ccccc1C(=O)NN(C(=O)c1ccccc1Cl)C(C)(C)C"
system_under_test = "UniProtKB E3UJZ5"
measured_endpoint = "EC50"
units = "nM"
readout_number = 437


* * *

# system under test: Ecdysone receptor (Spodoptera littoralis, UniProt E3UJZ5)
# assay name: Agonist activity at ecdysone receptor in Spodoptera littoralis Sl2 cells after 24 hr by luciferase reporter gene assay
# Assay type: cell-based
# condition info: read-out: pEC50 (converted)
measured endpoint: EC50 (nM)

[[record]]
compound = "CC(C)(C)N(NC(=O)c1ccc(Cl)cc1)C(=O)c1ccccc1 [HALOFENOZIDE]"
readout_number = 457

[[record]]
compound = "Cc1cc(C)c(Cl)c(C(=O)N(NC(=O)c2ccc3c(c2C)CCCO3)C(C)(C)C)c1"
readout_number = 67.6

[[record]]
compound = "CCc1ccc(C(=O)NN(C(=O)c2ccccc2)C(C)(C)C)cc1"
readout_number = 110

[[record]]
compound = "CCCCCc1ccc(C(=O)NN(C(=O)c2ccccc2Cl)C(C)(C)C)cc1"
readout_number = 324

[[record]]
compound = "Cc1cc(C)cc(C(=O)N(NC(=O)c2ccc3c(c2C)CCCO3)C(C)(C)C)c1 [CHROMAFENOZIDE]"
readout_number = 2.63

[[record]]
compound = "COc1ccc(C(=O)NN(C(=O)c2ccccc2Cl)C(C)(C)C)cc1"
readout_number = 339

[[record]]
compound = "CCCCc1ccc(C(=O)NN(C(=O)c2ccccc2OCC)C(C)(C)C)cc1"
readout_number = 7760

[[record]]
compound = "CCCc1ccc(C(=O)NN(C(=O)c2ccccc2Cl)C(C)(C)C)cc1"
readout_number = 74.1

[[record]]
compound = "Cc1cc(C)c(Cl)c(C(=O)N(NC(=O)c2ccccc2)C(C)(C)C)c1"
readout_number = 1740

[[record]]
compound = "CC(C)(C)N(NC(=O)c1ccccc1)C(=O)c1ccccc1"
readout_number = 1290

[[record]]
compound = "Cc1cc(C)cc(C(=O)N(NC(=O)c2ccccc2)C(C)(C)C)c1"
readout_number = 501

[[record]]
compound = "CCCCc1ccc(C(=O)NN(C(=O)c2cc(C)cc(C)c2Cl)C(C)(C)C)cc1"
readout_number = 1120

[[record]]
compound = "Cc1cc(C)cc(C(=O)N(NC(=O)c2ccc(C(C)(C)C)cc2)C(C)(C)C)c1"
readout_number = 7.08

[[record]]
compound = "CC(C)c1ccc(C(=O)NN(C(=O)c2ccccc2Cl)C(C)(C)C)cc1"
readout_number = 17.4

[[record]]
compound = "Cc1c(C(=O)NN(C(=O)c2ccccc2Cl)C(C)(C)C)ccc2c1CCCO2"
readout_number = 5.37


* * *

# System: Spodoptera littoralis
# assay name: Cytotoxicity against Spodoptera littoralis Sl2 cells assessed as cell viability after 24 hr by MTT assay
# condition info: read-out: pLC50 (converted)
measured endpoint: CC50 at 24 h

[[record]]
compound = "Cc1ccc(N(C(=O)c2ccc(Cl)cc2)C2CC(C)N(C(=O)c3ccc(Cl)cc3)c3ccc(C)cc32)cc1 (stereo unspecified)"
measured_endpoint = "CC50 at 24 h"
result = "> 15.1 µM"

[[record]]
compound = "CC1CCc2ccccc2N1C(=O)c1ccc(Cl)cc1 (stereo unspecified)"
measured_endpoint = "CC50 at 24 h"
result = "102 µM"

[[record]]
compound = "Cc1cc(C)cc(C(=O)C2(NC(=O)C(F)(F)F)CCCCC2)c1"
measured_endpoint = "CC50 at 24 h"
result = "> 501 µM"

[[record]]
compound = "Cc1ccc(NC2CC(C)N(C(=O)c3ccc(C(C)(C)C)cc3)c3ccc(C)cc32)cc1 (stereo unspecified)"
measured_endpoint = "CC50 at 24 h"
result = "> 25.1 µM"

[[record]]
compound = "CC1CC(Nc2ccc(F)cc2)c2cc(F)ccc2N1C(=O)c1ccc(Cl)cc1 (stereo unspecified)"
measured_endpoint = "CC50 at 24 h"
result = "> 501 µM"

[[record]]
compound = "CCc1ccc(C(=O)NC(C(=O)c2cc(C)cc(C)c2)C(C)(C)C)cc1 (stereo unspecified)"
measured_endpoint = "CC50 at 24 h"
result = "> 501 µM"


* * *

# system under test: Ecdysone receptor (Bombyx mori)
# Sequence (P49881 whole entry): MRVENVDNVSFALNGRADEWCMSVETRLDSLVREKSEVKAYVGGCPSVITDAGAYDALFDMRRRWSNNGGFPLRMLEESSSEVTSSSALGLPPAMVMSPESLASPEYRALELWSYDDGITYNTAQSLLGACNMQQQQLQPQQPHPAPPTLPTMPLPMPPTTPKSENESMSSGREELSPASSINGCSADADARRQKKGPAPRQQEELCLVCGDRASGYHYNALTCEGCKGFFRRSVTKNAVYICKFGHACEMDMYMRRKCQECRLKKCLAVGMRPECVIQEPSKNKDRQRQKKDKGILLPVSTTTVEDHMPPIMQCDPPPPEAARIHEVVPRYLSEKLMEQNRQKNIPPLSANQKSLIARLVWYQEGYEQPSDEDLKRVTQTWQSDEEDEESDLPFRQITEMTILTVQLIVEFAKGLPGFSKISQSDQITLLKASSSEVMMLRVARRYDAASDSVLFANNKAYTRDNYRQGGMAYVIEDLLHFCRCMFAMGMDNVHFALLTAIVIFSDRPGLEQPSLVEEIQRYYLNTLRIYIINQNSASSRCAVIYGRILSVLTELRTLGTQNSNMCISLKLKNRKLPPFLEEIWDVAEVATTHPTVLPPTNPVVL
# assay name: Agonist activity at ecdysone receptor in Bombyx mori Bm5 cells after 24 hr by luciferase reporter gene assay
# Format: cell-based
# condition info: read-out: pEC50 (converted)
Threshold 100 nM: EC50 strictly smaller gives met, otherwise not met.

[[record]]
molecule = "CCOc1ccccc1C(=O)N(NC(=O)c1ccc(Cl)cc1)C(C)(C)C"
group = "not met"

[[record]]
molecule = "CC(C)c1ccc(C(=O)NN(C(=O)c2ccccc2Cl)C(C)(C)C)cc1"
group = "met"

[[record]]
molecule = "Cc1c(C(=O)NN(C(=O)c2ccccc2Cl)C(C)(C)C)ccc2c1CCCO2"
group = "met"

[[record]]
molecule = "COc1ccc(C(=O)NN(C(=O)c2ccccc2Cl)C(C)(C)C)cc1"
group = "not met"

[[record]]
molecule = "CCCCc1ccc(C(=O)NN(C(=O)c2ccccc2OCC)C(C)(C)C)cc1"
group = "not met"

[[record]]
molecule = "COc1cccc(C(=O)NN(C(=O)c2cc(C)cc(C)c2)C(C)(C)C)c1C [METHOXYFENOZIDE]"
group = "met"

[[record]]
molecule = "CCCCCc1ccc(C(=O)NN(C(=O)c2ccccc2Cl)C(C)(C)C)cc1"
group = "not met"


* * *

# system under test: Ecdysone receptor (Spodoptera littoralis)
# Sequence (whole entry): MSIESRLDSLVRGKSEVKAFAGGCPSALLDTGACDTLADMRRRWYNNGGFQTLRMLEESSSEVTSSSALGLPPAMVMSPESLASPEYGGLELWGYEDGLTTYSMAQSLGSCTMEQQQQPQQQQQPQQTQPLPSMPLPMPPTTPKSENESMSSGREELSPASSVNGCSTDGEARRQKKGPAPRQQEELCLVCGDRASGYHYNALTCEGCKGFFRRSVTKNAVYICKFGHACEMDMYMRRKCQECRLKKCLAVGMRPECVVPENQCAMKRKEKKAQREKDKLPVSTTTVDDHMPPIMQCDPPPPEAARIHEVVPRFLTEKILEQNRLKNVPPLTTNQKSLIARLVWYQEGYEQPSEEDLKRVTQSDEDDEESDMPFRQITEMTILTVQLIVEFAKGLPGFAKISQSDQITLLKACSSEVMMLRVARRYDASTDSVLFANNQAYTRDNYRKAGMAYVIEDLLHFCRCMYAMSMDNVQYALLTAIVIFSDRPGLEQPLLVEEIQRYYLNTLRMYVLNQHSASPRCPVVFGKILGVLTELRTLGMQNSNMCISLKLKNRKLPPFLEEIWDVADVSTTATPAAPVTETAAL
# assay name: Agonist activity at ecdysone receptor in Spodoptera littoralis Sl2 cells after 24 hr by luciferase reporter gene assay relative to tebufenozide
# Format: cell-based
measured endpoint: Efficacy (%)

[[record]]
compound = "CC(C)(C)N(NC(=O)c1ccccc1)C(=O)c1ccccc1"
system_under_test = "Ecdysone receptor (Spodoptera littoralis)"
readout_number = 91

[[record]]
compound = "CC(C)c1ccc(C(=O)NN(C(=O)c2ccccc2Cl)C(C)(C)C)cc1"
system_under_test = "Ecdysone receptor (Spodoptera littoralis)"
readout_number = 95

[[record]]
compound = "CCc1ccc(C(=O)NN(C(=O)c2cc(C)cc(C)c2Cl)C(C)(C)C)cc1"
system_under_test = "Ecdysone receptor (Spodoptera littoralis)"
readout_number = 83

[[record]]
compound = "CCC(CC)(NC(=O)c1ccc2c(c1C)CCCO2)C(=O)c1cc(C)cc(C)c1"
system_under_test = "Ecdysone receptor (Spodoptera littoralis)"
readout_number = 104

[[record]]
compound = "CCc1ccc(C(=O)NN(C(=O)c2cc(C)cc(C)c2)C(C)(C)C)cc1 [TEBUFENOZIDE]"
system_under_test = "Ecdysone receptor (Spodoptera littoralis)"
readout_number = 100

[[record]]
compound = "Cc1ccc(C(=O)NN(C(=O)c2cc(C)cc(C)c2Cl)C(C)(C)C)cc1"
system_under_test = "Ecdysone receptor (Spodoptera littoralis)"
readout_number = 85

[[record]]
compound = "CC(C)(C)N(NC(=O)c1ccccc1)C(=O)c1ccccc1C(F)(F)F"
system_under_test = "Ecdysone receptor (Spodoptera littoralis)"
readout_number = 98

[[record]]
compound = "CCc1ccc(C(=O)NN(C(=O)c2ccccc2)C(C)(C)C)cc1"
system_under_test = "Ecdysone receptor (Spodoptera littoralis)"
readout_number = 110

